Reference source: ChEMBL document CHEMBL3414508

# Test Details: Antiviral activity against Influenza A virus (A/Hong Kong/7/1987(H3N2)) infected in MDCK cells assessed as reduction of virus-induced cytopathic effect after 72 hrs by microscopic analysis
# Format: functional, cell-based
pEC50: −log10 of the molar value.
Give pEC50 for every item shown.

Given the entry COC(=O)[C@H]1NC(=O)[C@H]2NC(=O)[C@H](NC(=O)[C@@H]3NC(=O)[C@H]4NC(=O)[C@@H](Cc5ccc(c(Cl)c5)Oc5cc3cc(c5O)Oc3ccc(cc3Cl)[C@H]2O)NC(=O)[C@H](Nc2c(NCc3ccc(-c5ccccc5)cc3)c(=O)c2=O)c2ccc(O)c(c2)Oc2cc(O)cc4c2)c2ccc(O)c(c2)-c2c(O)cc(O)cc21 , report its measured pEC50. < 4.00

Next molecule: COC(=O)[C@H]1NC(=O)[C@H]2NC(=O)[C@H](NC(=O)[C@@H]3NC(=O)[C@H]4NC(=O)[C@@H](Cc5ccc(cc5)Oc5cc3cc(c5O)Oc3ccc(cc3)[C@H]2O)NC(=O)[C@H](Nc2c(NCc3ccc(-c5ccccc5)cc3)c(=O)c2=O)c2ccc(O)c(c2)Oc2cc(O)cc4c2)c2ccc(O)c(c2)-c2c(O)cc(O)cc21 6.28

Next molecule: COC(=O)[C@H]1NC(=O)[C@H]2NC(=O)[C@H](NC(=O)[C@@H]3NC(=O)[C@H]4NC(=O)[C@@H](Cc5ccc(c(Cl)c5)Oc5cc3cc(c5O)Oc3ccc(cc3Cl)[C@H]2O[C@@H]2O[C@H](CO)[C@@H](O)[C@H](O)[C@H]2NC(C)=O)NC(=O)[C@H](N)c2ccc(O)c(c2)Oc2cc(O)cc4c2)c2ccc(O)c(c2)-c2c(O)cc(O)cc21 < 4.00

###

# Tested on: Influenza B virus
# Test Details: Antiviral activity against Influenza B virus (B/Hong Kong/05/1972) infected in MDCK cells assessed as cell viability after 72 hrs by MTS assay
# Assay type: functional, cell-based
# Study Conditions: B/Hong Kong/05/1972, MDCK
pEC50: −log10 of the molar value.
Measurement Type: pEC50

Given the entry N[C@H]1C(=O)N[C@@H]2Cc3ccc(c(Cl)c3)Oc3cc4cc(c3O)Oc3ccc(cc3Cl)[C@@H](O)[C@@H]3NC(=O)[C@H](NC(=O)[C@@H]4NC(=O)[C@@H](NC2=O)c2cc(O)cc(c2)Oc2cc1ccc2O)c1ccc(O)c(c1)-c1c(O)cc(O)cc1[C@@H](C(=O)O)NC3=O , report its measured pEC50. < 4.00

Next molecule: COc1c(N[C@H]2C(=O)N[C@@H]3Cc4ccc(c(Cl)c4)Oc4cc5cc(c4O)Oc4ccc(cc4Cl)[C@@H](O)[C@@H]4NC(=O)[C@H](NC(=O)[C@@H]5NC(=O)[C@@H](NC3=O)c3cc(O)cc(c3)Oc3cc2ccc3O)c2ccc(O)c(c2)-c2c(O)cc(O)cc2[C@@H](C(=O)O)NC4=O)c(=O)c1=O < 4.00

Next molecule: CC(=O)N[C@H]1[C@H](O[C@@H]2c3ccc(c(Cl)c3)Oc3cc4cc(c3O)Oc3ccc(cc3Cl)C[C@H]3NC(=O)[C@H](Nc5c(NCc6ccc(-c7ccccc7)cc6)c(=O)c5=O)c5ccc(O)c(c5)Oc5cc(O)cc(c5)[C@H](NC3=O)C(=O)N[C@H]4C(=O)N[C@H]3C(=O)N[C@@H]2C(=O)N[C@H](C(=O)O)c2cc(O)cc(O)c2-c2cc3ccc2O)O[C@H](CO)[C@@H](O)[C@@H]1O < 4.00
